- Target system: Insulin receptor (Homo sapiens)
- Sequence (P06213 28-758 limits assumed): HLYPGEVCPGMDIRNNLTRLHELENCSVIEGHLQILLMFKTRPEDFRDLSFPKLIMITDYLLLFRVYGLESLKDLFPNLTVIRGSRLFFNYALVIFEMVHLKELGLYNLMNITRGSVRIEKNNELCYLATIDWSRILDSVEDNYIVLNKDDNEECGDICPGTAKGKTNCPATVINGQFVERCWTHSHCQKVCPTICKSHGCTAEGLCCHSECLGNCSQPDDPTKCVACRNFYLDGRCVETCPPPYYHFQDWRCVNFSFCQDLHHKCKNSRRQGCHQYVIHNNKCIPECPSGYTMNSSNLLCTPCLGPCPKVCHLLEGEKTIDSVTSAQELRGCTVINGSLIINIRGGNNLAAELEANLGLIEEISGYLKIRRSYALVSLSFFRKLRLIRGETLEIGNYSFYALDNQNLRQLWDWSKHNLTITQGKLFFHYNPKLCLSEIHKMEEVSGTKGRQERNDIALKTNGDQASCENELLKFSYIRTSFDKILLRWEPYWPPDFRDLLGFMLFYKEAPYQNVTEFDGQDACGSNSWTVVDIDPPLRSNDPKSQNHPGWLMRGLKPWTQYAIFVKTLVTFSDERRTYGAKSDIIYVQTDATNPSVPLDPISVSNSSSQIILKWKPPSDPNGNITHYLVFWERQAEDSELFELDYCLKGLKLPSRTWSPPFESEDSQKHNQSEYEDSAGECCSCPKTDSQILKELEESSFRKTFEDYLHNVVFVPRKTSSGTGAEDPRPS
- Sequence (P06213 763-1382 limits assumed): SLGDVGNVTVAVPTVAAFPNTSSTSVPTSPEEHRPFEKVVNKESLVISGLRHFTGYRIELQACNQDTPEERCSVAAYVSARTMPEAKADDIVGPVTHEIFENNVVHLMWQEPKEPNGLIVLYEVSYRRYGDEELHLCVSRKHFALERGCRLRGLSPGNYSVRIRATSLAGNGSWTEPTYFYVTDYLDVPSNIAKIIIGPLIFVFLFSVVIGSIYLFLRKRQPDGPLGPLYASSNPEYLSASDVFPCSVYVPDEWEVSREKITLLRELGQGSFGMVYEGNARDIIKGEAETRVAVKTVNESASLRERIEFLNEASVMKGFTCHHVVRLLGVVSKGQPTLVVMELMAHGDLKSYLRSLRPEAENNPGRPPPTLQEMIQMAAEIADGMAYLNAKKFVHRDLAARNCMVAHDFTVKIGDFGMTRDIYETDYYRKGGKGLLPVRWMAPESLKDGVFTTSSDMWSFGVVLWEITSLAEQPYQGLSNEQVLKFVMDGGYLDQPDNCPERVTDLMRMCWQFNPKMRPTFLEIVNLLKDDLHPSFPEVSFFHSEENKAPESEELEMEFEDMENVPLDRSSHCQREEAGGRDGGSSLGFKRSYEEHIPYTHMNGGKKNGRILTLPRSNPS
- Protocol text: Activation of human IR-B expressed in mouse NIH3T3 cells assessed as increase in Akt phosphorylation at Ser473 residue incubated for 30 mins by HTRF method
- Assay type: cell-based
Positions of bridges follow the written chain, without caps; N, C: chain ends. Non-standard residues stand in square brackets, D forms with d. Gla = N[C@@H](CC(C(=O)O)C(=O)O)C(=O)O
I'd appreciate it if you could supply EC50 values for the items below.
Answers are plain numbers, in nM.

H-GVV[Gla]HCCKRACSNA[Gla]FMQFCNSDTPWNRCGSQITDSYR[Gla]LCPH-OH (disulfide 6-11, 7-29, 20-41) ... 12

Next substance, EC50 to be filled in.
Data request, read-out EC50, for H-GIV[Gla]DCCYNDCTDEKLKEYCHTLQSDSGTTLVRRRLCGS[Gla]LVTYLGELCLGN-OH (disulfide 6-11, 7-37, 20-49)
12

---

- Target system: Mas-related G-protein coupled receptor member X1 (Homo sapiens)
- Sequence (Q96LB2 whole entry): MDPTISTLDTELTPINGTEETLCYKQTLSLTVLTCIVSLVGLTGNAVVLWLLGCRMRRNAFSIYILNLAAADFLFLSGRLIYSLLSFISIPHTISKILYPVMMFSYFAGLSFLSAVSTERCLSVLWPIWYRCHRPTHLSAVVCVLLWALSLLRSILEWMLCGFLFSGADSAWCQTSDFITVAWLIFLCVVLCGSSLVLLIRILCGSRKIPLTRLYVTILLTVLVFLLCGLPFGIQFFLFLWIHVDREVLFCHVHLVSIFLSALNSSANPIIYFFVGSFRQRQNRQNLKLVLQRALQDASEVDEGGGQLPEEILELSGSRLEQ
- Protocol text: Activation of human MrgprX1 expressed in BAM 8-22 activated-rat KNRK cells by fura2-AM dye based calcium imaging assay
- Format: cell-based
Reported metric: EC50 (nM)
Answers are plain numbers, in nM.

These solved cases illustrate the format of a correct answer.
H-AWSGPRNRFVRF-OH ... 1800
H-HSGFLLAWSGPRNRFVRF-OH ... 1800

Next substance, EC50 to be filled in.
Data request, read-out EC50, for `H-HSGILLAWSGPRNRFVRI-OH`
500
